- System: LOC_OS02G07810-cb001
- Procedure Summary: thermal shift delta Tm vs DMSO control; higher = stronger stabilization (binding);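 also: purified Escherichia coli-expressed rice kinase domain construct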
- Experimental Context: 12.5 µM; protein concentration 2 µM
Answer each item with its documented thermal shift delta Tm.
Give me the value, and tack the unit on after it.

Prompt: Give the observed thermal shift delta Tm of "N#Cc1ccc2[nH]c(O)c(-c3ccc(CN4CCOCC4)cn3)c2c1" for LOC_OS02G07810-cb001.
Completion: 0.82 °C

Prompt: Give the observed thermal shift delta Tm of "CN(C)Cc1cccc(N/C(=C2\C(=O)Nc3cc(C(N)=O)ccc32)c2ccccc2)c1" for LOC_OS02G07810-cb001.
Completion: 0.75 °C

Prompt: Give the observed thermal shift delta Tm of "Cc1c(NC(=O)c2ccc(C(C)(C)C)cc2)cccc1-c1cn(C)c(=O)c(Nc2ccc(C(=O)N3CCOCC3)cc2)n1" for LOC_OS02G07810-cb001.
Completion: 0.9 °C

Prompt: Give the observed thermal shift delta Tm of "CCc1nc(C(N)=O)c(Nc2ccc(N3CCC(N4CCN(C)CC4)CC3)c(OC)c2)nc1NC1CCOCC1" for LOC_OS02G07810-cb001.
Completion: 1.35 °C

Prompt: Give the observed thermal shift delta Tm of "C=CC(=O)Nc1cccc(Nc2nc(Nc3ccc(OCCOC)cc3)ncc2F)c1" for LOC_OS02G07810-cb001.
Completion: 0.8 °C

Prompt: Give the observed thermal shift delta Tm of CN1CCC(CNc2ccc3ncc(-c4cccc(OC(F)(F)F)c4)n3n2)CC1 [SGI-1776 free base] for LOC_OS02G07810-cb001.
Completion: 0.42 °C

Prompt: Give the observed thermal shift delta Tm of "Cc1ccc(C(=O)Nc2cccc(C(F)(F)F)c2)cc1Nc1nc(-c2cccnc2)nc2c1cnn2C" for LOC_OS02G07810-cb001.
Completion: 1.8 °C

Prompt: Give the observed thermal shift delta Tm of "CC(C)(O)CNc1ncc(-c2ccnc(Nc3ccnc(Cl)c3)n2)c(CC2CC2)n1" for LOC_OS02G07810-cb001.
Completion: 0.23 °C

Prompt: Give the observed thermal shift delta Tm of "CN1CCN(Cc2ccc(NC(=O)Nc3ccc(Oc4ccnc(N)n4)cc3)cc2C(F)(F)F)CC1" for LOC_OS02G07810-cb001.
Completion: 0.57 °C

----------
- Tested on: LOC_OS01G01410-cb001
- Procedure Summary: thermal shift delta Tm vs DMSO control; higher = stronger stabilization (binding)
- Experimental Context: 12.5 µM; protein concentration 2 µM
Reported Metric: thermal shift delta Tm (°C)
Field: numeric (°C). Do not append units.

Prompt: Give the reported value of thermal shift delta Tm for this record: "Cc1ccc(Nc2nccc(N(C)c3ccc4c(C)n(C)nc4c3)n2)cc1S(N)(=O)=O"
Completion: 2.81

Prompt: Give the reported value of thermal shift delta Tm for this record: "COc1cc2ncnc(Nc3ccc(O)c(Br)c3)c2cc1OC"
Completion: 1.47

Prompt: Give the reported value of thermal shift delta Tm for this record: Clc1ccc(Nc2nnc(Cc3ccncc3)c3ccccc23)cc1 [Vatalanib (PTK787) 2HCl]
Completion: 0.99

Prompt: Give the reported value of thermal shift delta Tm for this record: "O=C(/C=C/c1ccc2ccccc2n1)c1ccncc1"
Completion: 0.4

Prompt: Give the reported value of thermal shift delta Tm for this record: "COC(=O)Nc1ccc(-c2nc(N3CCOCC3)c3cnn(C4CCN(C(=O)OC)CC4)c3n2)cc1"
Completion: 0.48

Prompt: Give the reported value of thermal shift delta Tm for this record: O=C(Nc1nccs1)C(c1cc(F)ccc1O)N1Cc2ccccc2C1=O (configuration not stated)
Completion: 0.29

Prompt: Give the reported value of thermal shift delta Tm for this record: "CCS(=O)(=O)N1CCN(c2ccc(Nc3ncc(C(N)=O)c(NC4CC4)n3)cc2)CC1"
Completion: 5.29

Prompt: Give the reported value of thermal shift delta Tm for this record: "CC[C@@H]1C(=O)N(C)c2cnc(Nc3ccc(C(=O)N[C@H]4CC[C@H](N5CCN(CC6CC6)CC5)CC4)cc3OC)nc2N1C(C)C"
Completion: 0.74

Prompt: Give the reported value of thermal shift delta Tm for this record: "COc1ncc(-c2cc(-c3ncc(CN4C[C@@H](C)O[C@@H](C)C4)o3)c3cn[nH]c3c2)cc1NS(C)(=O)=O"
Completion: 0.55

Prompt: Give the reported value of thermal shift delta Tm for this record: "CN(C)C[C@@H]1CCn2cc(c3ccccc32)C2=C(C(=O)NC2=O)c2cn(c3ccccc23)CCO1"
Completion: 1.3

Prompt: Give the reported value of thermal shift delta Tm for this record: "CCc1cnn2c(NCc3ccc[n+]([O-])c3)cc(N3CCCC[C@H]3CCO)nc12"
Completion: 0.61

Prompt: Give the reported value of thermal shift delta Tm for this record: "CNc1nc(Nc2cnn([C@H]3CCN(C4COC4)C[C@@H]3F)c2Cl)ncc1C(F)(F)F"
Completion: 0.23

Prompt: Give the reported value of thermal shift delta Tm for this record: "Nc1nccc(Oc2ccc(NC(=O)c3c[nH]cc(-c4ccc(F)cc4)c3=O)cc2F)c1Cl"
Completion: 1.82

Prompt: Give the reported value of thermal shift delta Tm for this record: "O=C1NC(=O)C(c2ccccc2[N+](=O)[O-])=C1Nc1ccc(O)c(Cl)c1"
Completion: 0.62

Prompt: Give the reported value of thermal shift delta Tm for this record: "O=c1c(O)c(-c2cc(O)c(O)c(O)c2)oc2cc(O)cc(O)c12"
Completion: 2.93

Prompt: Give the reported value of thermal shift delta Tm for this record: "COc1cc2ccc(=O)oc2cc1O"
Completion: -0.07

Prompt: Give the reported value of thermal shift delta Tm for this record: "Oc1cc(CNC(=S)/C=C/c2cc(O)c(O)c(Br)c2)cc(O)c1O"
Completion: 4.72

Prompt: Give the reported value of thermal shift delta Tm for this record: "CN(C)CCCn1cc(C2=C(c3c[nH]c4ccccc34)C(=O)NC2=O)c2ccccc21"
Completion: 0.25

Prompt: Give the reported value of thermal shift delta Tm for this record: "Oc1c2ccccc2c2c3c(cccc13)N=N2"
Completion: 3.59

Prompt: Give the reported value of thermal shift delta Tm for this record: "Cc1cc(CS(=O)(=O)c2ccccc2)cc(OCc2ccc(CN3CCC[C@@H]3CO)cc2)c1"
Completion: 0.31

Prompt: Give the reported value of thermal shift delta Tm for this record: "CN1CCN(c2ccc(-c3ccncc3-c3cc(F)c(O)c(F)c3)cc2)CC1"
Completion: 0.42

Prompt: Give the reported value of thermal shift delta Tm for this record: "CC(C)(C)c1cc(/C=C(\C#N)C(N)=S)cc(C(C)(C)C)c1O"
Completion: 2.99

Prompt: Give the reported value of thermal shift delta Tm for this record: "Cc1cc(Nc2cc(Cl)nc(Oc3ccc([N+](=O)[O-])cc3)n2)n[nH]1"
Completion: 2.53

Prompt: Give the reported value of thermal shift delta Tm for this record: "c1nc2c(NC3CCCCC3)nc(Nc3ccc(N4CCOCC4)cc3)nc2[nH]1"
Completion: 5.03

Prompt: Give the reported value of thermal shift delta Tm for this record: "Cc1cn(-c2cc(NC(=O)c3ccc(C)c(Nc4nccc(-c5cccnc5)n4)c3)cc(C(F)(F)F)c2)cn1"
Completion: 1.05

Prompt: Give the reported value of thermal shift delta Tm for this record: "CC(C)Nc1cc(-c2c[nH]c(C(=O)N[C@H](CO)c3cccc(Cl)c3)c2)c(Cl)cn1"
Completion: 6.3

Prompt: Give the reported value of thermal shift delta Tm for this record: O=C(Nc1ccc(-c2ccnc(Nc3ccc(N4CCOCC4)cc3)n2)cc1)C1CCCN1 (configuration not stated)
Completion: -0.35

Prompt: Give the reported value of thermal shift delta Tm for this record: "CS(=O)(=O)c1ccc(-c2cnc(N)c(C(=O)Nc3ccccc3)n2)cc1"
Completion: 1.64

Prompt: Give the reported value of thermal shift delta Tm for this record: "Cn1cc(-c2cnn3c(N)c(Br)c([C@@H]4CCCNC4)nc23)cn1"
Completion: 0.38

Prompt: Give the reported value of thermal shift delta Tm for this record: "NC(=O)Nc1cc(-c2cccc(F)c2)sc1C(=O)N[C@H]1CCCNC1"
Completion: 0.37

Prompt: Give the reported value of thermal shift delta Tm for this record: "Cc1ccc(Nc2cc(N[C@@H]3CCCC[C@@H]3N)nnc2C(N)=O)nc1C"
Completion: 1.14

Prompt: Give the reported value of thermal shift delta Tm for this record: "CNC(=O)Nc1ccc(-c2nc(N3CC4CCC(C3)O4)c3cnn(C4CCC5(CC4)OCCO5)c3n2)cc1"
Completion: 0.49

Prompt: Give the reported value of thermal shift delta Tm for this record: "Cc1[nH]c(/C=C2\C(=O)Nc3ccc(S(=O)(=O)Cc4c(Cl)cccc4Cl)cc32)c(C)c1C(=O)N1CCC[C@@H]1CN1CCCC1"
Completion: 1.92

Prompt: Give the reported value of thermal shift delta Tm for this record: "CN1c2ccccc2C(=O)Nc2cnc(Nc3ccc(N4CCC(O)CC4)cc3)nc21"
Completion: 0.94

Prompt: Give the reported value of thermal shift delta Tm for this record: "CNc1nc(-c2ccc3c(N)n[nH]c3c2)cc(N2C[C@@H](C(=O)NC3CCCCC3)CC[C@H]2C)n1"
Completion: -0.44

Prompt: Give the reported value of thermal shift delta Tm for this record: "C[C@H](NC(=O)c1c(N)nn2cccnc12)c1cc2cccc(C#Cc3cnn(C)c3)c2c(=O)n1-c1ccccc1"
Completion: -0.14

Prompt: Give the reported value of thermal shift delta Tm for this record: CCN(CC)CCNC(=O)c1c(C)[nH]c(/C=C2\C(=O)Nc3ccc(F)cc32)c1C [Sunitinib Malate]
Completion: 4.49
